Test system: NCI-H23 lung
assay_explanation: NCI tumour cell line growth inhibition, 48 h

compound | TGI
O=C1/C(=C/c2ccc(Cl)cc2)NC(=S)N1CN1CCOCC1 | > 100 µM
CC(=N/NC(=S)Nc1c(C)n(C)n(-c2ccccc2)c1=O)/C(C)=N\NC(=S)Nc1c(C)n(C)n(-c2ccccc2)c1=O | > 100 µM
CC(=O)OCC1OC(n2c3c(c(-c4ccc(Cl)cc4)c(C#N)c2=S)C(=O)CC(C)(C)C3)C(OC(C)=O)C(OC(C)=O)C1OC(C)=O (centres undefined) | > 100 µM
CC(C)(C)C1CCC2(CC1)CCN(CCCN1CCOCC1)CC2 | > 100 µM
